assay_target: L. monocytogenes AgrC (Listeria monocytogenes (EGD-e))
method: cell-based or functional assay
Bridges are numbered along the chain shown (N, C = ends). Where no end group is shown, it is not given here.
Field: Max Inhibition (agr-GFP reporter, wild-type strain). Provide a value for each of the binders that follow.
Write the answer as a number in %, unit excluded.

Param item = MSKACFMFV (not fully specified; thiolactone ring Cys5-Val9 (Cys side chain to C-terminal carboxyl)) [9-mer] ; retrieve measured Max Inhibition (agr-GFP reporter, wild-type strain).
8.89

Param item = SKACFMFV (not fully specified; thiolactone ring Cys4-Val8 (Cys side chain to C-terminal carboxyl)) [8-mer] ; retrieve measured Max Inhibition (agr-GFP reporter, wild-type strain).
29.4

Param item = DSSMSKACFMFV (not fully specified; thiolactone ring Cys8-Val12 (Cys side chain to C-terminal carboxyl)) [12-mer] ; retrieve measured Max Inhibition (agr-GFP reporter, wild-type strain).
0.26

Param item = KVADSSMSKACFMFV (not fully specified; thiolactone ring Cys11-Val15 (Cys side chain to C-terminal carboxyl)) [15-mer] ; retrieve measured Max Inhibition (agr-GFP reporter, wild-type strain).
0.23

Param item = KACFMFV (bridge 3-C; also: thiolactone: Cys3 side chain to C-terminal carboxyl) [7-mer, K-A-(C-F-M-F-V)] ; retrieve measured Max Inhibition (agr-GFP reporter, wild-type strain).
38.3

Param item = SSMSKACFMFV (not fully specified; thiolactone ring Cys7-Val11 (Cys side chain to C-terminal carboxyl)) [11-mer] ; retrieve measured Max Inhibition (agr-GFP reporter, wild-type strain).
3.9

Param item = SMSKACFMFV (not fully specified; thiolactone ring Cys6-Val10 (Cys side chain to C-terminal carboxyl)) [10-mer] ; retrieve measured Max Inhibition (agr-GFP reporter, wild-type strain).
0

Param item = VADSSMSKACFMFV (not fully specified; thiolactone ring Cys10-Val14 (Cys side chain to C-terminal carboxyl)) [14-mer] ; retrieve measured Max Inhibition (agr-GFP reporter, wild-type strain).
0

Param item = ADSSMSKACFMFV (not fully specified; thiolactone ring Cys9-Val13 (Cys side chain to C-terminal carboxyl)) [13-mer] ; retrieve measured Max Inhibition (agr-GFP reporter, wild-type strain).
0
